- Assay summary: NCI Yeast Anticancer Drug Screen. Data for the sgs1 mgt1 strain (AID 161);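 further: 0% = growth of cultures given vehicle only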
- Test settings: S. cerevisiae sgs1 mgt1 strain, at 50.0 µM
Compounds without any hit were thinned out: in the full panel of roughly 79,000, 15% have a hit. Calls of active or inactive are those of the source. No stated cut-off is given here; in the data, active means growth inhibition above about 70%; inactive means the rest.
# valid calls are YES = active, NO = inactive; nothing else

CN(C)c1ccc2cc3c(cc2c1)Oc1ccccc1N3.[Cl][Zn][Cl]	YES
COc1cc(/C=C/C(=O)CC(=O)/C=C/c2ccc(O)c(OC)c2)ccc1O	YES
CC(C)(C)c1ccc(CCO)cc1	NO

Data request: Test call, this molecule: CC(C)=C1C=C2CC[C@@H]3[C@](C)(CCC[C@@]3(C)C(=O)O)[C@H]2CC1
Data returned: YES

###

- Assay summary: NCI Yeast Anticancer Drug Screen. Data for the mlh1 rad18 strain (AID 175)
- Test settings: S. cerevisiae mlh1 rad18 strain growth inhibition; at 50.0 µM; active compounds read high
Compounds without any hit were thinned out: in the full panel of roughly 79,000, 15% have a hit.
The threshold is inclusive: growth inhibition of exactly 70% counts as t; values below receive f.

Study these solved cases before continuing.
O=C1C=Cc2ccccc2/C1=C/c1nc(-c2ccccc2)oc1O	t
O=C1Nc2ccc(Br)cc2C1=O	t
Cc1cc(I)nc2ccccc12	f

Data request: Is reported growth inhibition greater than or equal to 70% here: O=C(Cc1nc2cc(Cl)c(Cl)cc2nc1CC(=O)c1ccccc1)c1ccccc1
Data returned: t

Data request: Item OCCOSCCO with growth inhibition of 70% or above?
Data returned: f

###

- Assay summary: NCI Yeast Anticancer Drug Screen. Data for the mlh1 rad18 strain (AID 175)
- Test settings: S. cerevisiae mlh1 rad18 strain growth inhibition; at 5.0 µM (retest, dose inferred, filed as 0.5)
Compounds without any hit were thinned out: in the full panel of roughly 79,000, 15% have a hit. Calls of active or inactive are those of the source. No stated cut-off is given here; in the data, active means growth inhibition above about 70%; inactive means the rest.
Can you answer with just one of these options? active, inactive

Data request: Recorded call for CCN(CC)CC(O)CNc1ccc(NCC2CO2)c2c1C(=O)c1ccccc1C2=O (centres undefined) ?
Data returned: inactive

###

growth inhibition for assorted molecules
- Assay summary: NCI Yeast Anticancer Drug Screen. Data for the mlh1 rad18 strain (AID 175)
- Test settings: S. cerevisiae mlh1 rad18 strain growth inhibition; at 50.0 µM (retest, dose inferred, filed as 5.0); active compounds read high
The panel holds about 79,000 compounds, 15% with a hit somewhere; the sample as a whole holds those more often.
Could you give me the number in %? Just the number is fine.

Data request: Determine from records and report growth inhibition for CCCCCCCCCCCCCCCC[N+]1(C)CCCC1c1cccnc1 (stereo not given)
Data returned: 99

Data request: Kindly indicate its recorded growth inhibition. Item: c1ccc(-c2cccc(-c3ccccn3)n2)nc1
Data returned: 99

Data request: For the molecule CCCCCCCCc1cc(Cl)c(O)c(Cl)c1 , report growth inhibition.
Data returned: 98

Data request: Fill in reported growth inhibition for this entry: C=CCCCCCCCCC(=O)NN
Data returned: 91

Data request: # return recorded growth inhibition for entry CCN(CC)c1ccc(/C=C\C(=O)c2ccc(NC(C)=O)cc2)cc1
Data returned: -9

###

- Assay summary: NCI Yeast Anticancer Drug Screen. Data for the cln2 rad14 strain (AID 165);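 further: 0% = growth equal to vehicle treated cultures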
- Test settings: S. cerevisiae cln2 rad14 strain, at 50.0 µM (retest, dose inferred, filed as 5.0), active compounds read high
The panel holds about 79,000 compounds, 15% with a hit somewhere; the sample as a whole holds those more often.
Label label 0 if growth inhibition falls below 50%; label label 1 in every other case.

CCC(C)C(N)C(=O)NC(CC(N)=O)C(=O)NC(CC(C)C)C(=O)NC(CCCCN)C(=O)NC(C)C(=O)NC(CC(C)C)C(=O)NC(C)C(=O)NC(C)C(=O)NC(CC(C)C)C(=O)NC(C)C(=O)NC(CCCCN)C(=O)NC(CCCCN)C(=O)NC(C(=O)NC(CC(C)C)C(N)=O)C(C)CC (stereo not drawn)	label 1
CN(C)c1ccc(/C=C/c2nccc3ccccc23)cc1	label 1
CN(C)CCSC1=Nc2ccc(Cl)cc2C(c2ccccc2Cl)N(C)C1 (stereo not drawn)	label 0
NNc1cccc([N+](=O)[O-])c1	label 1
O=C1/C(=C/c2ccccc2)CCC/C1=C\c1ccccc1	label 1

Data request: Determine whether measured growth inhibition meets or exceeds 50% for S=c1sc2ccccc2n1CCNc1ccccc1
Data returned: label 0

Data request: Please indicate if the recorded growth inhibition for CCOc1ccc(NC(=O)/C(=N\N)C(C(=O)OC)c2nc3ccc(Cl)cc3[nH]c2=O)cc1 (stereo not drawn) meets or exceeds 50%.
Data returned: label 0
